experiment: Lipophilicity, log Pof the compound; format: physicochemical; conditions: octanol/water
QUANTITY KIND: logP

O=C(N[C@@H](CSCc1cc(=O)oc2cc(O)ccc12)C(=O)O)OCC1c2ccccc2-c2ccccc21; 3.91

1 = CC(C)C[C@H](NC(=O)OCC1c2ccccc2-c2ccccc21)C(=O)O
2 = CC(C)C[C@H](NC(=O)N1CCCCCC1)C(=O)N[C@H](Cc1cn(C)c2ccccc12)C(=O)N[C@H](Cc1ccccn1)C(=O)O
Input line: Given the two records 1 and 2 , choose the one whose logP value is lower. Reply briefly: the label of your chosen item.
Output line: 2
(2: 2.29, 1: 4.1)

* * *

Biological target: Sialin (Homo sapiens)
Sequence (Q9NRA2 whole entry): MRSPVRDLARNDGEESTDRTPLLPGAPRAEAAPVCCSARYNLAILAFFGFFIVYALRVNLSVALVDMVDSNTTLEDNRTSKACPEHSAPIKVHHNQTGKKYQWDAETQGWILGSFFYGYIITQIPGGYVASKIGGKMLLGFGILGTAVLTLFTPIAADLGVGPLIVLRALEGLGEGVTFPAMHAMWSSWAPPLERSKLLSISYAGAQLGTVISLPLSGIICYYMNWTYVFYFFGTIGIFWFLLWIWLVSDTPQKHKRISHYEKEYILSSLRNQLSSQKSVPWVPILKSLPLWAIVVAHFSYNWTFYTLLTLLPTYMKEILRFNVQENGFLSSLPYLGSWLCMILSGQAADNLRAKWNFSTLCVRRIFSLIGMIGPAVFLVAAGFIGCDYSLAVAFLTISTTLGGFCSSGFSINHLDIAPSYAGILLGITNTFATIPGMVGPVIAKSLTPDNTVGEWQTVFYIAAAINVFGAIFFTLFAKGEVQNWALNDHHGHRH
Experiment: Non-competitive inhibition of human recombinant-Sialin expressed in HEK293 cells assessed as reduction in [3H]Neu5Ac uptake incubated for 15 mins by liquid scintillation counting method
Assay type: cell-based
pKi: −log10 of the molar value.
QUANTITY KIND: pKi

O=C(N[C@@H](CSCc1cc(=O)oc2cc(O)ccc12)C(=O)O)OCC1c2ccccc2-c2ccccc21; 5.11
CC(C)C[C@H](NC(=O)OCC1c2ccccc2-c2ccccc21)C(=O)O; 4.99

* * *

target: Sialin (Homo sapiens); test: Inhibition of human recombinant-Sialin expressed in HEK293 cells assessed as reduction in [3H]Neu5Ac uptake at 30 to 300 uM incubated for 15 mins by liquid scintillation counting method; format: cell-based
QUANTITY KIND: pKi
// pKi: -log10(molar conc.)

Input line: So what does the record say about pKi for CC(C)C[C@H](NC(=O)N1CCCCCC1)C(=O)N[C@H](Cc1cn(C)c2ccccc12)C(=O)N[C@H](Cc1ccccn1)C(=O)O ?
Output line: 4.70

* * *

molecular target: Sialin (Homo sapiens, UniProt Q9NRA2); assay: Inhibition of human recombinant-Sialin expressed in HEK293 cells assessed as reduction in [3H]Neu5Ac uptake at 30 to 300 uM incubated for 15 mins by liquid scintillation counting method
This listing pairs molecules with measured IC50.

O=C(N[C@@H](CSCc1cc(=O)oc2cc(O)ccc12)C(=O)O)OCC1c2ccccc2-c2ccccc21; 2.4 to 2.9 µM

Input line: Query: IC50; subject: CC(C)C[C@H](NC(=O)OCC1c2ccccc2-c2ccccc21)C(=O)O
Output line: 23.3 to 24 µM
